Potency listing for selected compounds.
- experiment_description: qHTS Assay for Modulators of miRNAs and/or Inhibitors of miR-21; also: potency is read from the fitted curve at half-maximal effect; nearly all actives have a fitted effect of over 55% in size
- condition_set: HeLa miR-21-FLuc reporter, luciferase luminescence, 48 h; actives lower the signal
- From the text: MLSCN Grant: 1 R21 NS059478-01 Assay Provider: Qihong Huang, The Wistar Institute NCGC Assay Overview: MicroRNAs (miRNAs) are endogenously encoded small (~20-25 nucleotides), nonprotein-coding RNAs that are involved in post-transcriptional repression of target messenger RNAs (mRNAs) (Le and Hannon, 2004). […]
The campaign covered roughly 340,000 compounds. About 3,300 (0.97%) were called active. Another 9% or so got no clear call; they are omitted. The list shows a part of the results.

| compound | readout_label | measurement |
| --- | --- | --- |
| O=C(COc1ccccc1Cl)Nc1ccccc1C(=O)N1CCCCC1 | Potency | 6.56 µM (active) |
| CCOC(=O)c1c(C)[nH]c(C(=O)CSc2ccc(Cl)cc2)c1C | Potency | 7.36 µM (active) |
| O=C(NC(=S)Nc1ccc(Br)cn1)c1cccs1 | Potency | 0.521 µM (active) |
| O=[N+]([O-])c1cccnc1NCCc1ccccc1 | Potency | 5.21 µM (active) |
| c1ccc(Nc2nc(-c3cccs3)cs2)nc1 | Potency | 0.293 µM (active) |

Now consider the entry below.
In plain terms, C[C@H](NS(=O)(=O)c1ccc(Cl)cc1)C(=O)OCC(=O)NC(=O)Nc1ccc2c(c1)OCCO2 has a documented Potency of 13.1 µM (active)

###

- experiment_description: qHTS Assay for Modulators of miRNAs and/or Inhibitors of miR-21; also: potency is read from the fitted curve at half-maximal effect; nearly all actives have a fitted effect of over 55% in size
- condition_set: HeLa miR-21-FLuc reporter, luciferase luminescence, 48 h; actives lower the signal
In all, about 340,000 compounds went through this assay and about 3,300 (0.97%) were called active. About 9% were inconclusive and are not listed. This is one part of the list.
Potency listing for selected molecules.

// below: answered molecules
| molecule | readout_label | measurement |
| --- | --- | --- |
| C#CCN1C(=O)S/C(=C\c2ccc(-c3ccc(C(=O)O)cc3C)o2)C1=O | Potency | 3.29 µM (active) |
| O=C(CCC1CCCN(C(=O)Cc2cccc(F)c2)C1)N1CCN(c2ccccn2)CC1 (stereo not drawn) | Potency | 16.5 µM (active) |
| CCN(CC)CCCNC(=S)Nc1ccc(Br)cc1 | Potency | 2.93 µM (active) |

In plain terms, Cc1ccc(/C=N/NC(=S)N2CCOCC2)cc1 has a documented Potency of 13.1 µM (active)

In plain terms, CCCc1cc(C(=O)Nc2ccc(CC)cc2)no1 has a documented Potency of 5.21 µM (active)

In plain terms, COc1ccc(NC(=S)Nc2ncccc2C)cc1OC has a documented Potency of 5.21 µM (active)

In plain terms, Cc1cc(C(F)(F)F)c(C#N)c(SCC(=O)Nc2nc3cc(Br)ccc3s2)n1 has a documented Potency of 3.69 µM (active)

###

- experiment_description: qHTS Assay for Modulators of miRNAs and/or Inhibitors of miR-21; also: potency is read from the fitted curve at half-maximal effect; nearly all actives have a fitted effect of over 55% in size
- condition_set: HeLa miR-21-FLuc reporter, luciferase luminescence, 48 h; actives lower the signal
- Excerpt: MLSCN Grant: 1 R21 NS059478-01 Assay Provider: Qihong Huang, The Wistar Institute NCGC Assay Overview: MicroRNAs (miRNAs) are endogenously encoded small (~20-25 nucleotides), nonprotein-coding RNAs that are involved in post-transcriptional repression of target messenger RNAs (mRNAs) (Le and Hannon, 2004). […]
The campaign covered roughly 340,000 compounds. About 3,300 (0.97%) were called active. Roughly 9% stayed inconclusive and do not appear here. The list shows a part of the results.
readout_label: Potency

// below: answered molecules
| molecule | Potency |
| --- | --- |
| Nc1nc2sc3c(c2c(=O)s1)CCCC3 | 16.5 µM (active) |
| Cc1ccc2cc(NC(=O)c3ccccc3C)ccc2n1 | 5.85 µM (active) |
| O=C1c2ccccc2-c2nc3ccccc3cc21 | 1.47 µM (active) |
| Cc1ccc(NC(=O)CC(=O)c2ccccc2)cc1C | 11.7 µM (active) |
| COc1cc(/C=N/NC(=O)c2cccs2)ccc1O | 10.4 µM (active) |

In plain terms, Cc1ccc2cc(NC(=O)c3cccc(F)c3)ccc2n1 has a documented Potency of 0.464 µM (active)

In plain terms, CCOc1ccc(/C=C/C2=NNC(=O)CC2)cc1 has a documented Potency of 5.85 µM (active)

In plain terms, CSc1ccc(CNC(=O)c2ccc(NC(=O)c3nsc4ccccc34)cc2)cc1 has a documented Potency of 0.585 µM (active)

In plain terms, O=C(O)c1cccc(N/N=C/c2cc(Br)cc(Br)c2O)c1 has a documented Potency of 5.21 µM (active)

In plain terms, O=C(N/N=C/c1ccc2c(c1)OCO2)c1cccs1 has a documented Potency of 1.65 µM (active)

In plain terms, COc1cc(/C=N/NC(=O)Nc2ccccc2)ccc1OC(C)=O has a documented Potency of 8.26 µM (active)

In plain terms, CN1CCSc2ccc(C(=O)Nc3ccc(Cl)cc3)cc21 has a documented Potency of 1.04 µM (active)

In plain terms, O=C(Nc1nc(-c2cccs2)cs1)C1=COCCO1 has a documented Potency of 2.33 µM (active)

In plain terms, Cc1cc(C(=O)Nc2ccccc2)oc(=O)c1 has a documented Potency of 6.56 µM (active)

In plain terms, Cc1cc(C(=O)CN2C(=O)NC3(CCCCC3C)C2=O)c(C)n1Cc1cccs1 (configuration not stated) has a documented Potency of 5.21 µM (active)

In plain terms, COc1cccc(N=Nc2c(N)[nH][nH]c2=O)c1 has a documented Potency of 7.36 µM (active)

In plain terms, Cc1ccc(CNC(=O)c2ccc(NC(=O)c3nsc4ccccc34)cc2)cc1 has a documented Potency of 1.65 µM (active)
